Reference for the values: PubChem BioAssay (Tox21)

assay: qHTS assay to identify aromatase inhibitors - cell viability counter screen (AID 743084); conditions: MCF-7 aro ERE viability, CellTiter-Fluor, 24 h; series mostly up to 70.3 µM;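 further: cells stimulated with testosterone during compound exposure; nearly all actives have a fitted effect of over 55% in size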
Results filed as inconclusive are left out. The source made the active and inactive calls. The call rests on the fitted dose curve; in most records, active means well fitted cell-killing curve with a large enough effect in the repeat runs; inconclusive means weak or mixed curves, or effect the other way; inactive means no such curve, though single readings can be large or run the other way.
Write down one outcome, taken from active, inactive

Study these solved cases before continuing.
{"columns": ["compound", "classification"],
 "data": [
  ["CCCCCC/C=C/C=O", "inactive"],
  ["CN1CCC(=C2c3ccccc3CCc3sccc32)CC1", "inactive"],
  ["c1ccc(-c2nc[nH]c2-c2ccccc2)cc1", "inactive"],
  ["CC(=O)/C=C/C1C(C)=CCCC1(C)C (centres undefined)", "inactive"],
  ["C=C(C)C(=O)OC(C)C", "inactive"]
]}

Record request — test call for CCC(=O)OC(C)(C)C1CC=C(C)CC1 (centres undefined)
inactive

Status in this test for `CCCc1ccccc1` ?
inactive

Recorded test call requested for `NC[C@H]1O[C@H](O[C@H]2[C@H](O)[C@@H](O[C@H]3O[C@H](CO)[C@@H](O)[C@H](N)[C@H]3O)[C@H](N)C[C@@H]2N)[C@H](O)[C@@H](O)[C@@H]1O`
inactive

State the result this test recorded for C=CC(=O)OCC(C)OCC(C)OCC(C)OC(=O)C=C (centres undefined) .
active

---

assay: A CellTox Green Cytotoxicity Assay to monitor cytotoxicity in HEK293 cells - 32 hour (AID 1224881); conditions: CellTox Green fluorescence; series mostly up to 76.8 µM; further: nearly all actives have a fitted effect of over 40% in size
Records with an inconclusive call do not appear. Activity calls are given as the source filed them. The call rests on the fitted dose curve; in most records, active means well fitted activation curve with a large enough effect in the repeat runs; inconclusive means weak or mixed curves; inactive means flat fitted curve, though single readings scatter.
Hello, when you answer, please use one of the following outcomes: 1.0 = active, 0.0 = inactive

Take a look at these entries with their results.
{"columns": ["compound", "classification"],
 "data": [
  ["O=C(NN1CCCC1)NS(=O)(=O)c1ccc(Cl)cc1", 0.0],
  ["COc1ccc([C@@H]2Sc3ccccc3N(CCN(C)C)C(=O)[C@@H]2OC(C)=O)cc1", 0.0],
  ["NC1CCN(c2nc3c(cc2F)c(=O)c(C(=O)O)cn3-c2ccc(F)cc2F)C1 (configuration not stated)", 0.0],
  ["CC(=O)NCCCS(=O)(=O)O", 1.0],
  ["CCCCOC(=O)/C=C\\C(=O)OCCCC", 0.0],
  ["CCCCCC/C=C/C=O", 0.0],
  ["CCCCCCCCCCCCCCCBr", 0.0],
  ["O=C(O)c1cccc(N(Cc2cccnc2)c2ccc(OC(F)F)c(OC(F)F)c2)c1", 0.0],
  ["COC(=O)CSc1cc(N=c2sc(=O)n3n2CCCC3)c(F)cc1Cl", 0.0],
  ["N#Cc1c(F)cccc1F", 0.0]
]}

Recorded test call requested for CC(CN)CCCN (configuration not stated)
0.0

Which outcome did this test record for the compound `C[C@@H](C1=C(CCN(C)C)Cc2ccccc21)c1ccccn1` ?
0.0

I would be grateful if you could indicate the recorded call for `CCCOc1ccc2nc(NC(=O)OC)[nH]c2c1` .
0.0

Outcome logged for `CC[C@]12CCCN3CCc4c(n(c5ccccc45)C(=O)C1)[C@@H]32` in this assay:
0.0

Recorded test outcome, item `Cc1ccc(O)c([C@H](CCN(C(C)C)C(C)C)c2ccccc2)c1`
0.0

Which outcome did this test record for the compound `CC(=O)O[C@@H]1C(=O)O[C@@H]2[C@H]1OC(=O)[C@@H]2OC(C)=O` ?
0.0

Per the records of this test, what outcome belongs to `CC(C)(C)c1cc(CCC(=O)OCC(COC(=O)CCc2cc(C(C)(C)C)c(O)c(C(C)(C)C)c2)(COC(=O)CCc2cc(C(C)(C)C)c(O)c(C(C)(C)C)c2)COC(=O)CCc2cc(C(C)(C)C)c(O)c(C(C)(C)C)c2)cc(C(C)(C)C)c1O` ?
0.0

# fetch the recorded call for `CCCCCCCCN(C)C` here
0.0
